Target: F protein of hMPV A virus (human metapneumovirus subtype A)
Experiment: cell-based or functional assay

[
  {
    "binder": "M3D04 (antibody, V domains shown) VH: EVQLVESGGDLVEPGGSLRLSCAASGFTFESAWMSWVRQAPGKGLEWVGRIKSKLDHGTTDYAAPVKGRFTLSRDDSKNTLFLQMNNLKTEDTGVYYCATDRSDVRFLEWLGNYQFGMDVWGQGTTVAVSS VL: EIVLTQSPGTLSLSPGERATLSCRASHSVSSSYLAWYQQKPGQAPRLLIFGASSRATGIPDRFSGSGSGTDFTLTISRLEPEDFAVYYCQQYLTSPPGWTFGQGTKVEIK",
    "result-comparator": "=",
    "PRNT IC50, ng/mL": 200
  },
  {
    "binder": "M4B06 (antibody, V domains shown) VH: EVQLLESGGGFVQPGGSLRLSCVVTGFTFSNYAMCWVRQAPGKGPEWVSGIGGSVGTTYYADSVKGRFTISRDNSKNTLYLQMSGLRAEDTARYYCAKVPSFFVFEDGFDMWGQGTVVTVSS VL: QSVLTQPPSASGNPGQRVTISCYGSGSNIGNNYVHWFRQLPGTAPRLLIYNTDILVPGVPDRFSGSESGTSASLAISGLQSGDEADYFCAAWDDTLNGYVFGPGTTVTVL",
    "result-comparator": "=",
    "PRNT IC50, ng/mL": 3.5
  },
  {
    "binder": "M3C06 (antibody, V domains shown, IgG) VH: QVQLVQSGAEVKKPGSSVKVSCKAYGGTLSNYAISWVRQAPGQGLHWMGRIIPVMNVANYADNFQGRVTITADKSTSTAYMELSSLRSEDAAIYYCATARGLGSLEGGDAFDVWGQGTMLTVSS VL: DIVMTQSPDSVAVSLGERATISCKSSLSLLYSSNNKNYLVWYQQKPGQPPKLLFYWASTRESGVPDRFSASGSGTDFTLTISSLQAEDVAVYYCQQYYSTPITFGQGTRLEIR",
    "result-comparator": ">",
    "PRNT IC50, ng/mL": 10000
  },
  {
    "binder": "M4B11 (antibody, V domains shown) VH: QVQLVQSGTEVQTPGASVKVSCKTSGYIFTGYFMHWVRQAPGQGFEWMGWVNPYSGATTYAQKFQGRVTMTRDTSISTVYMELSRLTSDDTAIYYCAKDTSNSGPDLLEHWGQGTLVIVSS VL: EIVLTQSPATLSLSPGERATLSCRASQSISNFLVWYQRKPGQAPRLLIFDVSKRATGIPTRFSGSGSGTDFTLTISSLEPEDFAVYYCQQRSNWPPGYTFGQGTKLEIK",
    "result-comparator": "=",
    "PRNT IC50, ng/mL": 652
  },
  {
    "binder": "M2A05 (antibody, V domains shown, IgG) VH: QITLKESGPTLVKPTQTLTLTCTVSGFSLSANSVGVAWFRQPPGKAPEWLGVIYWDDDKRFSPSLKTRLSITKDASTSQVVLRLTNVSPLDTATYYCVRKHYDLLQWGQGAPVTVSS VL: EIVLTQSPGTLSLSPGEGATLSCRASRSVNSDYIAWYQHKPGLAPRLLIYAASTRATDIPDRFRADVSGTDFTLTIDRLEPDDFAVYYCQQYGSAVWTFGQGTRVEVK",
    "result-comparator": ">",
    "PRNT IC50, ng/mL": 10000
  }
]
